procedure-details: Serum compound levels in ovariectomized rats
Assay type: in vivo
condition-context: female, rat, 1 mg/kg per oral, read-out: serum compound level

# compound, endpoint-unit, concentration at 6 h
measured = [
    ("O=C(NCc1ncccc1Cl)c1ccc2c(c1)C1(CCS(=O)(=O)CC1)C(C1CC1)N2S(=O)(=O)c1ccc(F)cc1 (single isomer, unassigned)", "nM", 40),
]

---

tgt: human GnRH receptor (Homo sapiens, UniProt P30968)
Sequence (P30968 1-328): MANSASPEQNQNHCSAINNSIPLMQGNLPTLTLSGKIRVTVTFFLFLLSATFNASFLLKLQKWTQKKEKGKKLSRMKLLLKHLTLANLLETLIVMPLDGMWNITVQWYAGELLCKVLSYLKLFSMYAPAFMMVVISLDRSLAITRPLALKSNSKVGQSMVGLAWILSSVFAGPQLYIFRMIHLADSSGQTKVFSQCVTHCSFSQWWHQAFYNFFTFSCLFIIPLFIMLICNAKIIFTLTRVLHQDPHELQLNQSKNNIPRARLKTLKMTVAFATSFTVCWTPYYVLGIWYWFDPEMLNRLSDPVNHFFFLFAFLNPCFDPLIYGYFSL
procedure-details: IP-One HTRF assay with buserelin (at EC80) stimulation
condition-context: CHO cells stably expressing human GnRH receptor, read-out: Potency in IP-One HTRF assay, given as IC50
pIC50: −log10 of the molar value.
Recorded measurements of pIC50, one per entry

# compound, tgt, result-modifier, pIC50
records = [
    ("O=C(NCc1ccccc1O)c1ccc2c(c1)C1(CCS(=O)(=O)CC1)C(C1CC1)N2S(=O)(=O)c1ccc(F)cc1 (stereo not drawn)", "human GnRH receptor (Homo sapiens, UniProt P30968)", "=", 6.49),
    ("N#Cc1cccc(S(=O)(=O)N2c3ccc(C(=O)Nc4ccon4)cc3C3(CCS(=O)(=O)CC3)C2C2CC2)c1 (single isomer, unassigned) [Example 80.2]", "human GnRH receptor (Homo sapiens, UniProt P30968)", "<", 4.70),
    ("COc1cccc(S(=O)(=O)N2c3ccc(C(=O)NCc4ncccc4Cl)cc3C3(CCS(=O)(=O)CC3)C2C2CC2)c1 (single isomer, unassigned) [Example 41.2]", "human GnRH receptor (Homo sapiens, UniProt P30968)", "=", 6.37),
]
